We begin with a simple list: items and their reported RF, resistance factor.
tested on: A2780-cisR cell line; experiment: MTT cytotoxicity assay; assay type: cell-based; details: ratio of IC50 in A2780-cisR to A2780
Lab note: record just the number, no unit beside it.

[
  {
    "COMPOUND": "N.N.[Cl][Pt][Cl] [Cisplatin, cisplatin, reference compound]",
    "OBS VALUE": 15.53
  },
  {
    "COMPOUND": "CCCCCCCCCCCCCCCC(=O)[O][Pt]1([O]C(=O)CCC(=O)O)[O]C(=O)C(=O)[O]1.NC1CCCCC1N [OXA-PAL-SUCC]",
    "OBS VALUE": 4.13
  }
]

Switching to the query record.
INPUT: Sample CCCCCCCCCCCCCCCC(=O)[O][Pt]12([O]C(C)=O)([NH]C3CCCCC3[NH]1)[O]C(=O)C(=O)[O]2 (stereo not shown) [OXA-PAL-ACT, oxaliplatin palmitate acetate] — what was its RF, resistance factor?
OUTPUT: 0.93

====

system: PC-3 LUC cell line; assay: MTT cytotoxicity assay; conditions: 120 h treatment
Measured IC50 PC-3 LUC of individual entries
Write it as a number; the unit mg/L goes unstated.

Here are 2 compounds together with their reported answers.
[
  {
    "COMPOUND": "CCCCCCCCCCCCCCCC(=O)[O][Pt]1([O]C(=O)CCC(=O)O)[O]C(=O)C(=O)[O]1.NC1CCCCC1N [OXA-PAL-SUCC]",
    "TEST SYSTEM": "PC-3 LUC cell line",
    "OBS VALUE": 0.78
  },
  {
    "COMPOUND": "CCCCCCCCCCCCCCCC(=O)[O][Pt]1([O]C(=O)CCCCCCCCCCCCCCC)[O]C(=O)C(=O)[O]1.NC1CCCCC1N [OXADP, oxaliplatin dipalmitate]",
    "TEST SYSTEM": "PC-3 LUC cell line",
    "OBS VALUE": 21.35
  }
]

INPUT: Request the reported IC50 PC-3 LUC associated with CCCCCCCCCCCCCCCC(=O)[O][Pt]12([O]C(C)=O)([NH]C3CCCCC3[NH]1)[O]C(=O)C(=O)[O]2 (stereo not shown) [OXA-PAL-ACT, oxaliplatin palmitate acetate]
OUTPUT: 0.33

INPUT: Data request, read-out IC50 PC-3 LUC, for O=C1[O][Pt]2([NH][C@@H]3CCCC[C@H]3[NH]2)[O]C1=O [Oxaliplatin, reference compound]
OUTPUT: 11

====

Items are presented alongside their recorded IC50.
tested on: CT-26-luc cell line; test: MTT antiproliferative assay; assay type: cell-based, murine; conditions: 120 h incubation
Numeric answer only, unit µM assumed.

INPUT: Name the recorded IC50 for CCCCCCCCCCCCCCCC(=O)[O][Pt]1([O]C(=O)CCC(=O)O)[O]C(=O)C(=O)[O]1.NC1CCCCC1N .
OUTPUT: 4.43

INPUT: Given the compound O=C1[O][Pt]2([NH][C@@H]3CCCC[C@H]3[NH]2)[O]C1=O [Oxaliplatin, reference compound] , what is its reported IC50?
OUTPUT: 5.6

INPUT: // returns reported IC50 for input CCCCCCCCCCCCCCCC(=O)[O][Pt]12([O]C(C)=O)([NH]C3CCCCC3[NH]1)[O]C(=O)C(=O)[O]2 (stereo not shown) [OXA-PAL-ACT, oxaliplatin palmitate acetate]
OUTPUT: 0.62

FYI, the data here is from patent US10239903B2.
